Reported IC50 values follow for various compounds
# target desc: P236L viral reverse transcriptase (Human immunodeficiency virus type 1 group M subtype B, UniProt P04585, P823L)
# Construct: P236L viral reverse transcriptase is obtained by PNAS 90: 4713-4717 (1993); made in house
# assay explanation: inhibition of viral reverse transcriptase (P236L), cell free assay
# Assay type: biochemical
# stated conditions: 30 minutes at 37° C., read-out: IC50 (Table I, P236L)
Give the number; nM is assumed, so skip it.

{"compound": "Nc1cc(Cl)nc(SCC(=O)c2ccccc2)n1", "measured attribute": "IC50", "unit descriptor": "nM", "endpoint value": 2000}
{"compound": "Cc1ccnc(CSc2nc(N)c(Br)c(Cl)n2)c1", "measured attribute": "IC50", "unit descriptor": "nM", "endpoint value": 50}
{"compound": "Cc1cc(CSc2nc(N)cc(Cl)n2)nc(N(C)C)c1", "measured attribute": "IC50", "unit descriptor": "nM", "endpoint value": 50}
{"compound": "Cc1cc(C)nc(CSc2nc(N)cc(Cl)n2)n1", "measured attribute": "IC50", "unit descriptor": "nM", "endpoint value": 1000}
{"compound": "Nc1cc(Cl)nc(SCc2ccccn2)n1", "measured attribute": "IC50", "unit descriptor": "nM", "endpoint value": 2}

For record `Nc1cc(Cl)nc(SCc2ccc(Cl)cc2Cl)n1` the listed IC50 is 1000

In plain terms, `Nc1cc(Cl)nc(SCc2ccoc2)n1` has a documented IC50 of 10000

The compound identified as `CC(C)Cc1ccnc(CSc2nc(N)cc(Cl)n2)c1` registered its IC50 at 40000

`Nc1cc(Cl)nc(SCc2cccc(Cl)c2)n1` yielded IC50 of 500

Item: `Cc1cc(Cl)nc(CSc2nc(N)cc(Cl)n2)c1` | IC50: 50

Lab note: measured IC50 of Nc1cc(Cl)nc([S+]([O-])Cc2cccc(Br)c2)n1 (centres unmarked) was 25000

* * *

# target desc: P236L viral reverse transcriptase (Human immunodeficiency virus type 1 group M subtype B, UniProt P04585, P823L)
# Construct: P236L viral reverse transcriptase is obtained by PNAS 90: 4713-4717 (1993); made in house
# assay explanation: inhibition of viral reverse transcriptase (P236L), cell free assay
# Type: biochemical
# stated conditions: IC50 (Table I, P236L), 30 minutes at 37° C.
measured attribute: IC50 (nM)
# unit: nM | format: bare number

Below, each entry is followed by its recorded IC50 result.
{"molecule": "COC(=O)c1ccc(CSc2nc(N)cc(Cl)n2)nc1 [Example 188]", "IC50 [nM]": 50000}
{"molecule": "CN(C(=O)/C=C/CSc1nc(N)cc(Cl)n1)c1ccccc1 [Example 200]", "IC50 [nM]": 1000}
{"molecule": "Cc1cc2cc(C(C)Sc3nc(N)cc(Cl)n3)nc(Cl)c2o1 (centres unmarked) [Example 240]", "IC50 [nM]": 116}
{"molecule": "CCC(C)c1ccnc(C(C)Sc2nc(N)cc(Cl)n2)c1 (centres unmarked) [Example 256]", "IC50 [nM]": 100}
{"molecule": "COC(=O)/C=C(\\C)CSc1nc(N)cc(Cl)n1 [Example 208]", "IC50 [nM]": 1000}

Measured IC50, CC(C)c1ccnc(C(C)Sc2nc(N)cc(Cl)n2)c1 (centres unmarked) [Example 223] : 68

// sample CC(Sc1nc(N)cc(Cl)n1)c1cc2c(C(F)(F)F)coc2c(Cl)n1 (centres unmarked) [Example 293] , its IC50 was 190

Kindly note the recorded IC50 for C[C@H](Sc1nc(N)cc(Cl)n1)c1cc2ccoc2cn1 [Example 299] , which is 22

* * *

# target desc: viral reverse transcriptase (Wild Type) (Human immunodeficiency virus type 1 group M subtype B)
# Construct: Viral reverse transcriptase (Wild Type) is found in extracts from bacterial clones; made in house; host or cells: Escherichia coli
# assay explanation: inhibition of viral reverse transcriptase (Wild Type), cell free assay
# Type: biochemical
# stated conditions: @ 50 μM
# inhibition at 50 µM values compiled below

Take a look at these entries with their results.
{"compound": "CC(Sc1nc(N)cc(Cl)n1)c1cc(CN2CCOCC2)ccn1 (centres unmarked)", "inhibition at 50 µM": "49%"}
{"compound": "CCNC(=O)/C=C/CSc1nc(N)cc(Cl)n1", "inhibition at 50 µM": "71%"}

Noted for `CCOC(=O)c1cc(N)nc(SCc2ccc3ccccc3c2)n1` : its inhibition at 50 µM reads 21%

The reported inhibition at 50 µM of the compound COC(=O)C(Sc1nc(N)cc(Cl)n1)c1cc(C)ccn1 (centres unmarked) was 19%

Looking up `CN1CCN(C(=O)/C=C/CSc2nc(N)cc(Cl)n2)CC1` , I see its inhibition at 50 µM listed as 40%

* * *

# target desc: viral reverse transcriptase (Wild Type) (Human immunodeficiency virus type 1 group M subtype B)
# Construct: Viral reverse transcriptase (Wild Type) is found in extracts from bacterial clones; made in house; host or cells: Escherichia coli
# assay explanation: inhibition of viral reverse transcriptase (Wild Type), cell free assay
# Assay type: biochemical
# stated conditions: IC50 (Table II, Wild Type), 30 minutes at 37° C.
measured attribute: IC50

Memo: `CCc1ccnc([C@H](C)Sc2nc(N)cc(Cl)n2)c1` , reported IC50: 7 nM

* * *

# target desc: P236L viral reverse transcriptase (Human immunodeficiency virus type 1 group M subtype B, UniProt P04585, P823L)
# Construct: P236L viral reverse transcriptase is obtained by PNAS 90: 4713-4717 (1993); made in house
# assay explanation: inhibition of viral reverse transcriptase (P236L), cell free assay
# Assay type: biochemical
# stated conditions: IC50 (Table I, P236L), 30 minutes at 37° C.
Known IC50 of a selection of compounds
API: value field is a number in µM; no unit string.

{"compound": "COC(=O)C(Sc1nc(N)cc(Cl)n1)c1cc(C)ccn1 (stereo not drawn)", "IC50, µM": 50}
{"compound": "CC(Sc1nc(N)cc(C(F)(F)F)n1)c1cc2ccoc2cn1 (stereo not drawn)", "IC50, µM": 0.088}
{"compound": "Cc1cc2cc(C(C)Sc3nc(N)cc(Cl)n3)ncc2o1 (stereo not drawn)", "IC50, µM": 0.118}
{"compound": "CC(C)c1ccnc(C(C)Sc2nc(N)cc(C(F)(F)F)n2)c1 (stereo not drawn)", "IC50, µM": 0.16}
{"compound": "Cc1coc2cnc([C@@H](C)Sc3nc(N)cc(C(F)(F)F)n3)cc12", "IC50, µM": 0.079}

Entry under test: CCC(CC)c1ccnc(C(C)Sc2nc(N)cc(Cl)n2)c1 (stereo not drawn) . Its IC50 was 0.07

Documented IC50 of `CC(C)(C)c1ccnc(CSc2nc(N)cc(C(F)(F)F)n2)c1` : 0.1

Just so you know, measured IC50 for CC(Sc1nc(N)cc(C(F)(F)F)n1)c1cc(C(C)(C)C)ccn1 (stereo not drawn) came out at 0.2

GET /value?item= CCc1cc(C(C)Sc2nc(N)cc(Cl)n2)ncc1OC (stereo not drawn) &field=IC50 returns 0.191

* * *

Recorded IC50 for the following compounds
# target desc: P236L viral reverse transcriptase (Human immunodeficiency virus type 1 group M subtype B, UniProt P04585, P823L)
# Construct: P236L viral reverse transcriptase is obtained by PNAS 90: 4713-4717 (1993); made in house
# assay explanation: inhibition of viral reverse transcriptase (P236L), cell free assay
# Type: biochemical
# stated conditions: IC50 (Table I, P236L), 30 minutes at 37° C.
Quick reminder: number only, in nM, skip the unit.

See these solved cases before continuing.
{"compound": "CC(C)COc1ccc(C(C)Sc2nc(N)cc(Cl)n2)nc1Cl (stereo not drawn) [Example 307]", "endpoint value": 1000}
{"compound": "Cc1coc2c(Cl)nc(C(C)Sc3nc(N)cc(C(F)(F)F)n3)cc12 (stereo not drawn) [Example 295]", "endpoint value": 249}
{"compound": "Nc1cc(Cl)nc(SCc2ccc(-c3ccccc3)cn2)n1 [Example 133]", "endpoint value": 1000}

Recorded result, CC(Sc1nc(N)cc(Cl)n1)c1ccc(OCc2ccccc2)c(Cl)n1 (stereo not drawn) [Example 303] , IC50: 5000

CC(C)c1ccnc(CSc2nc(N)cc(C(F)(F)F)n2)c1 [Example 271] yielded IC50 of 50

So for CCN(CC)C(=O)/C=C/CSc1nc(N)cc(Cl)n1 [Example 194] , the logged IC50 turned out to be 34

Reported IC50 ( Cc1cc2cc(C(C)Sc3nc(N)cc(C(F)(F)F)n3)ncc2o1 (stereo not drawn) [Example 243] ) = 188

Please fill in: IC50 reported for Nc1cc(Cl)nc(SC/C=C/C(=O)N2CCOCC2)n1 [Example 198] = 10000

Briefly, IC50 measured for CC(Sc1nc(N)cc(Cl)n1)c1cc2c(cn1)CCCC2 (stereo not drawn) [Example 233] : 68
